Data provenance is paper PMC5989765.

- test details: Study 204953 Part 2: repeat dosing for 11 days with RTV QD or 200 mg BID unboosted
- Format: in vivo, human
- assay conditions: human, plasma, oral, Study Day 11, 50 mg QD + RTV (PiB), Study 204953; median (range)
endpoint label: Tmax (h)
Your answer is read as h, so omit the unit and give the number.

Problem: Annotate the compound CC(C)C1=C2[C@H]3CC[C@@H]4[C@@]5(C)CC[C@H](OC(=O)CC(C)(C)C(=O)O)C(C)(C)[C@@H]5CC[C@@]4(C)[C@]3(C)CC[C@@]2([C@@H](O)CN(CCN(C)C)Cc2ccc(Cl)cc2)CC1=O with its measured Tmax.
Result: 3.75
